Items are presented alongside their recorded IC50.
Tested on: E. coli O157:H7
assay_info: Biofilm amounts in liquid beef broth at 10° C.
Assay type: cell-based
condition_info: Escherichia coli, read-out: IC50 biofilm
assay_metric: IC50

compound="CCCCCCC(N)C(=O)O (racemic) [D,L-α-aminocaprylic acid]" readout_value="1840 µg/mL"
compound="NCCc1ccccc1 [PEA, β-phenylethylamine]" readout_value="340 µg/mL"
compound="O=C[C@H](O)[C@H](O)[C@@H](O)CO [L-lyxose]" readout_value="76000 µg/mL"
compound="NC(=O)C[C@@H](N)C(=O)O [D-asparagine]" readout_value="200 µg/mL"
